assay: In vitro stability in 50% brain homogenate; type: in vitro ADME, mouse; conditions: 50% w/v CD-1 mouse brain homogenate in PBS pH 7.4; 120 μL of 5 mM DMSO stock in 1080 μL; 37°C, 100 rpm; 0-1440 min; HPLC-UV 220 nm; one phase decay, least square fit; n = 3
Residues, ends and D or L forms follow the SMILES beside them.
Please provide measured k for the entries that follow.
Please reply with the bare figure in h⁻¹ and do not write the unit itself.

input: Quick one: k for CCCCCCCCCCCC(=O)N[C@@H](CCC(N)=O)C(=O)N[C@@H](Cc1c[nH]cn1)C(=O)N[C@@H](CO)C(=O)N[C@@H](CCC(N)=O)C(=O)N[C@H](C(=O)N[C@H](C(=O)N[C@@H](CCCCN)C(=O)N[C@H](C(=O)O)C(C)C)[C@@H](C)O)[C@@H](C)CC [Mouse Lau-PTEN-PDZ] (HELM PEPTIDE1{[CCCCCCCCCCCC(=O)[*:2]].Q.H.S.Q.I.T.K.V}$$$$V2.0) ?
output: 3.48

input: Quick one: k for CCCCCCCCCCCC(=O)N[C@@H](CCC(N)=O)C(=O)N[C@@H](Cc1c[nH]cn1)C(=O)N[C@H](C(=O)N[C@@H](CCC(N)=O)C(=O)N[C@H](C(=O)N[C@H](C(=O)N[C@@H](CCCCN)C(=O)N[C@H](C(=O)O)C(C)C)[C@@H](C)O)[C@@H](C)CC)[C@@H](C)O [Human Lau-PTEN-PDZ] (HELM PEPTIDE1{[CCCCCCCCCCCC(=O)[*:2]].Q.H.T.Q.I.T.K.V}$$$$V2.0) ?
output: 1.90

input: Quick one: k for CCCCCCCCCCCCCC(=O)N[C@@H](CCC(N)=O)C(=O)N[C@@H](Cc1c[nH]cn1)C(=O)N[C@H](C(=O)N[C@@H](CCC(N)=O)C(=O)N[C@H](C(=O)N[C@H](C(=O)N[C@@H](CCCCN)C(=O)N[C@H](C(=O)O)C(C)C)[C@@H](C)O)[C@@H](C)CC)[C@@H](C)O [Human Myr-PTEN-PDZ] (HELM PEPTIDE1{[CCCCCCCCCCCCCC(=O)[*:2]].Q.H.T.Q.I.T.K.V}$$$$V2.0) ?
output: 4.20

input: Quick one: k for CCCCCCCCCCCCCC(=O)N[C@@H](CCC(N)=O)C(=O)N[C@@H](Cc1c[nH]cn1)C(=O)N[C@@H](CO)C(=O)N[C@@H](CCC(N)=O)C(=O)N[C@H](C(=O)N[C@H](C(=O)N[C@@H](CCCCN)C(=O)N[C@H](C(=O)O)C(C)C)[C@@H](C)O)[C@@H](C)CC [Mouse Myr-PTEN-PDZ] (HELM PEPTIDE1{[CCCCCCCCCCCCCC(=O)[*:2]].Q.H.S.Q.I.T.K.V}$$$$V2.0) ?
output: 2.71

###

Please provide measured k for the entries that follow.
experiment: In vitro stability in simulated intestinal fluid (mouse intestinal wash); format: in vitro ADME; conditions: Simulated intestinal fluid = undiluted pooled CD-1 mouse duodenum/ileum wash in 50 mM phosphate buffer pH 6.63; 120 μL of 5 mM DMSO stock in 1080 μL; 37°C, 100 rpm; 0-1440 min; HPLC-UV 220 nm; one phase decay, least square fit; n = 3
Residues, ends and D or L forms follow the SMILES beside them.
Please reply with the bare figure in h⁻¹ and do not write the unit itself.

input: Quick one: k for CCCCCCCCCCCCCC(=O)N[C@@H](CCC(N)=O)C(=O)N[C@@H](Cc1c[nH]cn1)C(=O)N[C@@H](CO)C(=O)N[C@@H](CCC(N)=O)C(=O)N[C@H](C(=O)N[C@H](C(=O)N[C@@H](CCCCN)C(=O)N[C@H](C(=O)O)C(C)C)[C@@H](C)O)[C@@H](C)CC [Mouse Myr-PTEN-PDZ] (HELM PEPTIDE1{[CCCCCCCCCCCCCC(=O)[*:2]].Q.H.S.Q.I.T.K.V}$$$$V2.0) ?
output: 0.15

input: Quick one: k for CCCCCCCCCCCC(=O)N[C@@H](CCC(N)=O)C(=O)N[C@@H](Cc1c[nH]cn1)C(=O)N[C@@H](CO)C(=O)N[C@@H](CCC(N)=O)C(=O)N[C@H](C(=O)N[C@H](C(=O)N[C@@H](CCCCN)C(=O)N[C@H](C(=O)O)C(C)C)[C@@H](C)O)[C@@H](C)CC [Mouse Lau-PTEN-PDZ] (HELM PEPTIDE1{[CCCCCCCCCCCC(=O)[*:2]].Q.H.S.Q.I.T.K.V}$$$$V2.0) ?
output: 2.34

input: Quick one: k for CCCCCCCCCCCC(=O)N[C@@H](CCC(N)=O)C(=O)N[C@@H](Cc1c[nH]cn1)C(=O)N[C@H](C(=O)N[C@@H](CCC(N)=O)C(=O)N[C@H](C(=O)N[C@H](C(=O)N[C@@H](CCCCN)C(=O)N[C@H](C(=O)O)C(C)C)[C@@H](C)O)[C@@H](C)CC)[C@@H](C)O [Human Lau-PTEN-PDZ] (HELM PEPTIDE1{[CCCCCCCCCCCC(=O)[*:2]].Q.H.T.Q.I.T.K.V}$$$$V2.0) ?
output: 0.23

input: Quick one: k for CCCCCCCCCCCCCC(=O)N[C@@H](CCC(N)=O)C(=O)N[C@@H](Cc1c[nH]cn1)C(=O)N[C@H](C(=O)N[C@@H](CCC(N)=O)C(=O)N[C@H](C(=O)N[C@H](C(=O)N[C@@H](CCCCN)C(=O)N[C@H](C(=O)O)C(C)C)[C@@H](C)O)[C@@H](C)CC)[C@@H](C)O [Human Myr-PTEN-PDZ] (HELM PEPTIDE1{[CCCCCCCCCCCCCC(=O)[*:2]].Q.H.T.Q.I.T.K.V}$$$$V2.0) ?
output: 0.25

###

Please provide measured t1/2 (h) for the entries that follow.
assay: In vitro stability in 50% v/v mouse plasma; type: in vitro ADME; conditions: 50% v/v mouse plasma in PBS; 37°C; HPLC-UV 220 nm; one phase decay, least square fit; n = 3
Residues, ends and D or L forms follow the SMILES beside them.
Please reply with the bare figure in h and do not write the unit itself.

input: Quick one: t1/2 (h) for CCCCCCCCCCCCCC(=O)N[C@@H](CCC(N)=O)C(=O)N[C@@H](Cc1c[nH]cn1)C(=O)N[C@H](C(=O)N[C@@H](CCC(N)=O)C(=O)N[C@H](C(=O)N[C@H](C(=O)N[C@@H](CCCCN)C(=O)N[C@H](C(=O)O)C(C)C)[C@@H](C)O)[C@@H](C)CC)[C@@H](C)O [Human Myr-PTEN-PDZ] (HELM PEPTIDE1{[CCCCCCCCCCCCCC(=O)[*:2]].Q.H.T.Q.I.T.K.V}$$$$V2.0) ?
output: 0.11

input: Quick one: t1/2 (h) for CCCCCCCCCCCC(=O)N[C@@H](CCC(N)=O)C(=O)N[C@@H](Cc1c[nH]cn1)C(=O)N[C@H](C(=O)N[C@@H](CCC(N)=O)C(=O)N[C@H](C(=O)N[C@H](C(=O)N[C@@H](CCCCN)C(=O)N[C@H](C(=O)O)C(C)C)[C@@H](C)O)[C@@H](C)CC)[C@@H](C)O [Human Lau-PTEN-PDZ] (HELM PEPTIDE1{[CCCCCCCCCCCC(=O)[*:2]].Q.H.T.Q.I.T.K.V}$$$$V2.0) ?
output: 0.15

input: Quick one: t1/2 (h) for CCCCCCCCCCCCCC(=O)N[C@@H](CCC(N)=O)C(=O)N[C@@H](Cc1c[nH]cn1)C(=O)N[C@@H](CO)C(=O)N[C@@H](CCC(N)=O)C(=O)N[C@H](C(=O)N[C@H](C(=O)N[C@@H](CCCCN)C(=O)N[C@H](C(=O)O)C(C)C)[C@@H](C)O)[C@@H](C)CC [Mouse Myr-PTEN-PDZ] (HELM PEPTIDE1{[CCCCCCCCCCCCCC(=O)[*:2]].Q.H.S.Q.I.T.K.V}$$$$V2.0) ?
output: 0.87

input: Quick one: t1/2 (h) for CCCCCCCCCCCC(=O)N[C@@H](CCC(N)=O)C(=O)N[C@@H](Cc1c[nH]cn1)C(=O)N[C@@H](CO)C(=O)N[C@@H](CCC(N)=O)C(=O)N[C@H](C(=O)N[C@H](C(=O)N[C@@H](CCCCN)C(=O)N[C@H](C(=O)O)C(C)C)[C@@H](C)O)[C@@H](C)CC [Mouse Lau-PTEN-PDZ] (HELM PEPTIDE1{[CCCCCCCCCCCC(=O)[*:2]].Q.H.S.Q.I.T.K.V}$$$$V2.0) ?
output: 5.86

###

Please provide measured Papp A→B at 100 μM for the entries that follow.
test: Permeability across in vitro 2D human blood-brain barrier model; assay type: in vitro ADME; conditions: read-out: Papp0-4h, Experiment 2
Residues, ends and D or L forms follow the SMILES beside them.
Just so you know, I need the unit written after the number.

input: Quick one: Papp A→B at 100 μM for CCCCCCCCCCCCCC(=O)N[C@@H](CCC(N)=O)C(=O)N[C@@H](Cc1c[nH]cn1)C(=O)N[C@H](C(=O)N[C@@H](CCC(N)=O)C(=O)N[C@H](C(=O)N[C@H](C(=O)N[C@@H](CCCCN)C(=O)N[C@H](C(=O)O)C(C)C)[C@@H](C)O)[C@@H](C)CC)[C@@H](C)O [Human Myr-PTEN-PDZ] (HELM PEPTIDE1{[CCCCCCCCCCCCCC(=O)[*:2]].Q.H.T.Q.I.T.K.V}$$$$V2.0) ?
output: 3.77 ×10⁻⁶ cm/s

input: Quick one: Papp A→B at 100 μM for CCCCCCCCCCCC(=O)N[C@@H](CCC(N)=O)C(=O)N[C@@H](Cc1c[nH]cn1)C(=O)N[C@H](C(=O)N[C@@H](CCC(N)=O)C(=O)N[C@H](C(=O)N[C@H](C(=O)N[C@@H](CCCCN)C(=O)N[C@H](C(=O)O)C(C)C)[C@@H](C)O)[C@@H](C)CC)[C@@H](C)O [Human Lau-PTEN-PDZ] (HELM PEPTIDE1{[CCCCCCCCCCCC(=O)[*:2]].Q.H.T.Q.I.T.K.V}$$$$V2.0) ?
output: 5.57 ×10⁻⁶ cm/s

input: Quick one: Papp A→B at 100 μM for CCCCCCCCCCCCCC(=O)N[C@@H](CCC(N)=O)C(=O)N[C@@H](Cc1c[nH]cn1)C(=O)N[C@@H](CO)C(=O)N[C@@H](CCC(N)=O)C(=O)N[C@H](C(=O)N[C@H](C(=O)N[C@@H](CCCCN)C(=O)N[C@H](C(=O)O)C(C)C)[C@@H](C)O)[C@@H](C)CC [Mouse Myr-PTEN-PDZ] (HELM PEPTIDE1{[CCCCCCCCCCCCCC(=O)[*:2]].Q.H.S.Q.I.T.K.V}$$$$V2.0) ?
output: 2.63 ×10⁻⁶ cm/s
